Reference source for all entries: patent US11931343B2

# experimental.target: UniProt P21589
# method: Inhibition of Ecto-5′-nucleotidase (CD73) activity in CHO-CD73 cells, phosphate release from AMP
# setup.conditions: CHO-K1 cells stably transfected with human CD73; 25 μM AMP; 50 minutes, 37° C.; read-out: Potency: CD73 IC50
pIC50: −log10 of the molar value.
measurement.kind: pIC50

Study these solved cases before continuing.
Recorded result, C=CCNc1nn(-c2ccc3cn[nH]c3c2)c2cc(-c3ccnn3Cc3ccc(C#N)cc3)cnc12 , pIC50: < 6.00

Recorded result, O=c1[nH]c2ccc(-n3ncc4cnc(-c5ccnn5Cc5ccc(Cl)cn5)cc43)cc2[nH]1 , pIC50: < 6.00

Further cases:
Recorded result, Fc1cc(Cl)cnc1Cn1nccc1-c1cc(Cl)c2nnn(-c3ccc4cn[nH]c4c3)c2c1 , pIC50: 6.00 to 7.00

Recorded result, O=c1[nH]c2ccc(-n3nnc4c(F)cc(-c5ccnn5Cc5ccc(F)cn5)cc43)cc2[nH]1 [Example 173] , pIC50: 6.00 to 7.00

====

# experimental.target: human CD73 (Homo sapiens)
# Sequence (P21589 27-549): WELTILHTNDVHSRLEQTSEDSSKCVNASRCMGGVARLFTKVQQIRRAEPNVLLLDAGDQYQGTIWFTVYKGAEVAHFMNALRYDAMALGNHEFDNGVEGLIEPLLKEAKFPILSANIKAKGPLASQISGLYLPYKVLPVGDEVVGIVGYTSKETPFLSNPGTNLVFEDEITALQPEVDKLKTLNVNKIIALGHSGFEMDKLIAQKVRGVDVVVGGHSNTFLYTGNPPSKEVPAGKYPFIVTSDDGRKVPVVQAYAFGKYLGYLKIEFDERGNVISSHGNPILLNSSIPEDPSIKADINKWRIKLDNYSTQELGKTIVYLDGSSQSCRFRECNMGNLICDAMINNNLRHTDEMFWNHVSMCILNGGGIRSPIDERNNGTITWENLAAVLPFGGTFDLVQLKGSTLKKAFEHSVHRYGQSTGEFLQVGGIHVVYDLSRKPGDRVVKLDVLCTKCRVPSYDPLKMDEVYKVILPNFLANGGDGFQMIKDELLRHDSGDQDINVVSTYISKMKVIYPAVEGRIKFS
# method: Inhibition of Ecto-5′-nucleotidase (CD73) activity in CHO-CD73 cells, phosphate release from AMP
# setup.conditions: CHO-K1 cells stably transfected with human CD73; 25 μM AMP; 50 minutes, 37° C.; read-out: Potency: CD73 IC50
pIC50: −log10 of the molar value.
Each entry below carries its recorded pIC50.

Study these solved cases before continuing.
Recorded result, Cc1ccc(Cn2nccc2-c2cc3c(cc2F)nnn3-c2ccc3cn[nH]c3c2)nc1 [Example 392] , pIC50: > 7.00

Recorded result, O=c1[nH]c2ccc(-n3nnc4c(F)cc(-c5ccnn5Cc5cccc6cn[nH]c56)cc43)cc2[nH]1 [Example 242] , pIC50: < 6.00

Recorded result, N#Cc1ccc(Cn2nccc2-c2cc3c(c[n+]2[O-])nnn3-c2ccc3[nH]c(=O)[nH]c3c2)cc1 [Example 391] , pIC50: < 6.00

Recorded result, O=c1[nH]c2ccc(-n3nnc4c(F)cc(-c5ccnn5CCc5ccccc5Cl)cc43)cc2[nH]1 [Example 221] , pIC50: < 6.00

Further cases:
Recorded result, N#Cc1ccc(Cn2nccc2-c2cnc3c(CO)nn(-c4ccc5[nH]c(=O)[nH]c5c4)c3c2)cc1 [Example 336] , pIC50: 6.00 to 7.00

Recorded result, CCc1cc(C#N)ccc1Cn1nccc1-c1cc(F)c2nnn(-c3ccc4[nH]c(=O)[nH]c4c3)c2c1 [Example 309] , pIC50: 6.00 to 7.00

Recorded result, N#Cc1ccc(Cn2nccc2-c2cnc3c(N)nn(-c4ccc5[nH]c(=O)[nH]c5c4)c3c2)cc1 [Example 219] , pIC50: 6.00 to 7.00

Recorded result, N#Cc1ccc(Cn2nc(C(=O)O)cc2-c2cc(F)c3nnn(-c4ccc5[nH]c(=O)[nH]c5c4)c3c2)cc1 [Example 322] , pIC50: < 6.00

Recorded result, N#Cc1cccc(-n2nccc2-c2cc3c(cc2Cl)nnn3-c2ccc3cn[nH]c3c2)c1 [Example 403] , pIC50: < 6.00
